System: 171881-019-R-J1-PDC complex spheroid growth, % test/control;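 further: spheroids exposed to compounds for 7 days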
Assay: Anticancer human tumor 171881-019-R-J1-PDC patient-derived invasive breast carcinoma cell line growth inhibition [Asc]; active means viability on the fitted dose curve at most 10% of control; inactive means the rest
Details: second compound 0.0316 µM; first compound 0.316 µM
Allowed answers: TRUE for active, FALSE for inactive

Answered examples (6):
{"columns": ["compound", "label.class"],
 "data": [
  ["C#Cc1c(F)ccc2cc(O)cc(-c3ncc4c(N5CC6CCC(C5)N6)nc(OCC56CCCN5CC(F)C6)nc4c3F)c12 (configuration not stated) + CNC(C)C(=O)NC1CN(S(=O)(=O)c2cccc(S(=O)(=O)N3CCC4CCC(C(=O)NC(c5ccccc5)c5ccccc5)N4C(=O)C(NC(=O)C(C)NC)C3)c2)CCC2CCC(C(=O)NC(c3ccccc3)c3ccccc3)N2C1=O", "FALSE"],
  ["O=C(c1cc(Cc2n[nH]c(=O)c3ccccc23)ccc1F)N1CCN(C(=O)C2CC2)CC1 + CNC(C)C(=O)NC1CN(S(=O)(=O)c2cccc(S(=O)(=O)N3CCC4CCC(C(=O)NC(c5ccccc5)c5ccccc5)N4C(=O)C(NC(=O)C(C)NC)C3)c2)CCC2CCC(C(=O)NC(c3ccccc3)c3ccccc3)N2C1=O", "FALSE"],
  ["O=C(c1ccc(F)c(F)c1Nc1ccc(I)cc1F)N1CC(O)([C@@H]2CCCCN2)C1 + CNC(C)C(=O)NC1CN(S(=O)(=O)c2cccc(S(=O)(=O)N3CCC4CCC(C(=O)NC(c5ccccc5)c5ccccc5)N4C(=O)C(NC(=O)C(C)NC)C3)c2)CCC2CCC(C(=O)NC(c3ccccc3)c3ccccc3)N2C1=O", "FALSE"],
  ["COc1c(OCCCN2CCOCC2)ccc2c3n(c(=NC(=O)c4cnc(N)nc4)nc12)CCN3 + CNC(C)C(=O)NC1CN(S(=O)(=O)c2cccc(S(=O)(=O)N3CCC4CCC(C(=O)NC(c5ccccc5)c5ccccc5)N4C(=O)C(NC(=O)C(C)NC)C3)c2)CCC2CCC(C(=O)NC(c3ccccc3)c3ccccc3)N2C1=O", "TRUE"],
  ["C=CC(=O)N1CCN(c2nc(=O)n(-c3c(C)ccnc3C(C)C)c3nc(-c4c(O)cccc4F)c(F)cc23)C(C)C1 (configuration not stated) + CNC(C)C(=O)NC1CN(S(=O)(=O)c2cccc(S(=O)(=O)N3CCC4CCC(C(=O)NC(c5ccccc5)c5ccccc5)N4C(=O)C(NC(=O)C(C)NC)C3)c2)CCC2CCC(C(=O)NC(c3ccccc3)c3ccccc3)N2C1=O", "FALSE"],
  ["C=C(F)C(=O)N1CCN(c2nc(OCC3CCCN3C)nc3c2CCN(c2cccc4cccc(Cl)c24)C3)CC1CC#N (configuration not stated) + CNC(C)C(=O)NC1CN(S(=O)(=O)c2cccc(S(=O)(=O)N3CCC4CCC(C(=O)NC(c5ccccc5)c5ccccc5)N4C(=O)C(NC(=O)C(C)NC)C3)c2)CCC2CCC(C(=O)NC(c3ccccc3)c3ccccc3)N2C1=O", "FALSE"]
]}

Now take the following compound into account.
Ask: Entry CCN1CCN(Cc2ccc(Nc3ncc(F)c(-c4cc(F)c5nc(C)n(C(C)C)c5c4)n3)nc2)CC1 + CNC(C)C(=O)NC1CN(S(=O)(=O)c2cccc(S(=O)(=O)N3CCC4CCC(C(=O)NC(c5ccccc5)c5ccccc5)N4C(=O)C(NC(=O)C(C)NC)C3)c2)CCC2CCC(C(=O)NC(c3ccccc3)c3ccccc3)N2C1=O : call = ?
Reply: FALSE
